- target: UniProtKB Q8IW41
- Format: biochemical
- conditions used: PRAK; 1 μM compound concentration
quantity measured: POC (Percent of control) PRAK (POC)

1) COc1ccc(Nc2ncccc2-c2ncnc3[nH]cnc23)cn1    99
2) c1cnc(Nc2cccc3[nH]ncc23)c(-c2ncnc3[nH]cnc23)c1    95
3) Cc1nc(N)nc(-c2cccnc2Nc2cccc(O)c2)n1    97
4) Cc1nc(-c2cccnc2Nc2cccc3[nH]ncc23)c2nc[nH]c2n1    100
5) CCc1cnc(Nc2ccc(OC)nc2)c(-c2nc(C)nc3[nH]cnc23)c1    97
6) Cc1nc(N)nc(-c2cccnc2Nc2cccc3[nH]ccc23)n1    106
7) Cc1cnc(Nc2cccc3[nH]ncc23)c(-c2nc(C)nc(N)n2)c1    103
8) COc1ccc(Nc2ncc(CN3CCN(C(C)=O)CC3)cc2-c2nc(C)nc3[nH]cnc23)cn1    99
9) COc1ccc(Nc2ncc(Cc3ccc(S(C)(=O)=O)cc3)cc2-c2nc(C)nc3[nH]cnc23)cn1    103
10) COc1ccc(Nc2ncccc2-c2nc(C)nc3[nH]cnc23)cn1    84
11) Cc1cnc(Nc2cccc3[nH]ccc23)c(-c2nc(C)nc(N)n2)c1    111
12) c1cnc(Nc2cccc3[nH]ccc23)c(-c2ncnc3[nH]cnc23)c1    84
13) Cc1nc(N)nc(-c2cc(CN3CCN(S(C)(=O)=O)CC3)cnc2Nc2cccc(O)c2)n1    112
14) Cc1nc(N)cc(-c2cccnc2Nc2cccc3[nH]ncc23)n1    98

====

- target: ProfilerPro Kinase Selectivity Assay Kit kinases (Homo sapiens, UniProt P23443)
- Assay type: biochemical
- conditions used: p70S6K; 1 μM compound concentration
quantity measured: POC (Percent of control) p70S6K (POC)

// known answers, use as guide
1) COc1ccc(Nc2ncc(Cc3ccc(S(C)(=O)=O)cc3)cc2-c2nc(C)nc3[nH]cnc23)cn1 [Example 103]    109
2) Cc1nc(N)cc(-c2cccnc2Nc2cccc3[nH]ncc23)n1 [Example 27]    91
3) COc1ccc(Nc2ncccc2-c2nc(C)nc3[nH]cnc23)cn1 [Example 58]    98
4) c1cnc(Nc2cccc3[nH]ccc23)c(-c2ncnc3[nH]cnc23)c1 [Example 19]    91

(1) Cc1nc(N)nc(-c2cccnc2Nc2cccc(O)c2)n1 [Example 23]
(2) Cc1cnc(Nc2cccc3[nH]ncc23)c(-c2nc(C)nc(N)n2)c1 [Example 47]
Query: Which numeric POC (Percent of control) p70S6K is bigger, that of 1 or that of 2 ? Please reply using the label of the selected record.
Response: 1

====

- target: ProfilerPro Kinase Selectivity Assay Kit kinases (Homo sapiens)
- Type: biochemical
- conditions used: p38 alpha; 1 μM compound concentration
quantity measured: POC (Percent of control) p38 alpha (POC)

1. COc1ccc(Nc2ncccc2-c2ncnc3[nH]cnc23)cn1 [Example 20]    93
2. c1cnc(Nc2cccc3[nH]ccc23)c(-c2ncnc3[nH]cnc23)c1 [Example 19]    86
3. Cc1nc(N)nc(-c2cccnc2Nc2cccc(O)c2)n1 [Example 23]    104
4. COc1ccc(Nc2ncc(Cc3ccc(S(C)(=O)=O)cc3)cc2-c2nc(C)nc3[nH]cnc23)cn1 [Example 103]    92
5. Cc1nc(N)cc(-c2cccnc2Nc2cccc3[nH]ncc23)n1 [Example 27]    104
6. Cc1nc(N)nc(-c2cc(CN3CCN(S(C)(=O)=O)CC3)cnc2Nc2cccc(O)c2)n1 [Example 30]    99
7. CCc1cnc(Nc2ccc(OC)nc2)c(-c2nc(C)nc3[nH]cnc23)c1 [Example 74]    101
8. Cc1nc(-c2cccnc2Nc2cccc3[nH]ncc23)c2nc[nH]c2n1 [Example 57]    100
9. c1cnc(Nc2cccc3[nH]ncc23)c(-c2ncnc3[nH]cnc23)c1 [Example 18]    86

====

- target: PI3Kα (Homo sapiens (Human))
- Sequence (P42336 whole entry): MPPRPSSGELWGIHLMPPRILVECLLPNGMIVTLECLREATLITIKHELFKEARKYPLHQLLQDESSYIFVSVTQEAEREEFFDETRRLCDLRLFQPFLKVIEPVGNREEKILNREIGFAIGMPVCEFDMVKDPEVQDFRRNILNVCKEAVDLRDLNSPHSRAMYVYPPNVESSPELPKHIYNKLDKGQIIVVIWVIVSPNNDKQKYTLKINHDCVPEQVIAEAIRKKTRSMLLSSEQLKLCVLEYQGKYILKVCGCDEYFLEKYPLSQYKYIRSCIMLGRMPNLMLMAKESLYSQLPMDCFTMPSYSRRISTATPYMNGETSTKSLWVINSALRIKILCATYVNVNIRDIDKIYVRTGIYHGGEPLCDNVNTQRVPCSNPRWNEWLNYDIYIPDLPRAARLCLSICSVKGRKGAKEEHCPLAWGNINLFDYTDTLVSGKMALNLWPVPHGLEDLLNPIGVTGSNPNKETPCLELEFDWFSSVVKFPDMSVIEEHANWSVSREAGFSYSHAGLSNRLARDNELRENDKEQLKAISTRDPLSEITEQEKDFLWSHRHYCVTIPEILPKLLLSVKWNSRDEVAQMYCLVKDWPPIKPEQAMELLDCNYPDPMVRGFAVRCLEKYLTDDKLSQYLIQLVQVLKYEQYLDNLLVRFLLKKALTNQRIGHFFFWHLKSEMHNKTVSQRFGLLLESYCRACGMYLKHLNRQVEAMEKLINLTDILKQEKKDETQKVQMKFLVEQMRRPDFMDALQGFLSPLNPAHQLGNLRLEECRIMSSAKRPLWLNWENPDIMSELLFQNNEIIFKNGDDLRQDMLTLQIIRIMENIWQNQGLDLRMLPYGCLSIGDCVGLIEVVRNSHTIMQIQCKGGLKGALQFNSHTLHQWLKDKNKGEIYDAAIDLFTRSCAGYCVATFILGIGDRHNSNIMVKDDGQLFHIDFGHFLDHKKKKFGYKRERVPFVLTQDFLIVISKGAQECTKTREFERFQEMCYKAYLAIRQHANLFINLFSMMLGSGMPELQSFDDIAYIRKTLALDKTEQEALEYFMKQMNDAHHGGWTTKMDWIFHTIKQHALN
- Sequence (P27986 whole entry partner): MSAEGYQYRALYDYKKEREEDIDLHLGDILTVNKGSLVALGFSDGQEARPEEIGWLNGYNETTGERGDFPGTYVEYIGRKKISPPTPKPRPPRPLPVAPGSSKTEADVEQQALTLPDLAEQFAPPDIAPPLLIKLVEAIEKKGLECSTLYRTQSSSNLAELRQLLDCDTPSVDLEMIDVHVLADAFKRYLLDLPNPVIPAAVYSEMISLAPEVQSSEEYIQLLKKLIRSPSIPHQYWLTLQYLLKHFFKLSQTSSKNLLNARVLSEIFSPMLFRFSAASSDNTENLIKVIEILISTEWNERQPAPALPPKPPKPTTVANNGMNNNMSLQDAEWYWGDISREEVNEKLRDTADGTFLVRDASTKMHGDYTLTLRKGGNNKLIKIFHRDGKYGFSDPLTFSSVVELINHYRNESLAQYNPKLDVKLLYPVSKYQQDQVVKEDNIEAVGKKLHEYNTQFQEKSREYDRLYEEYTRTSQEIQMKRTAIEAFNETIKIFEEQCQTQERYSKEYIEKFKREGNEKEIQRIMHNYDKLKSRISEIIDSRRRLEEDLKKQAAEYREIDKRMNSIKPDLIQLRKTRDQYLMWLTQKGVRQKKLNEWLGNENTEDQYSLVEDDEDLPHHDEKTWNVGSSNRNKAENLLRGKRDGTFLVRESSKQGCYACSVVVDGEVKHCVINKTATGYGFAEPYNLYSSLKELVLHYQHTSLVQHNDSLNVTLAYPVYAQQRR
- conditions used: read-out: PI3Kα AlphaScreen ® Ki
quantity measured: Ki (nM)

// known answers, use as guide
1. COc1ccc(Nc2ncc(CN3CCN(S(C)(=O)=O)CC3)cc2-c2cc(N)nc(C)n2)cn1    6
2. Cc1nc(N)nc(-c2cc(C(C)N3CCN(S(C)(=O)=O)CC3)cnc2Nc2ccc3scnc3c2)n1 (stereo not shown)    24
3. Cc1nc(N)nc(-c2cc(C(C)N3CCOCC3)cnc2Nc2cnc(Cl)c(NS(C)(=O)=O)c2)n1 (stereo not shown)    8
4. COc1ncc(Nc2ncc([C@@H](C)N3CCN(S(C)(=O)=O)C[C@@H]3C)cc2-c2cc(N)nc(C)n2)cc1F    1
5. COc1ncc(Nc2nc(C)ccc2-c2nc(C)nc(N)n2)cc1F    33
6. COc1ncc(Nc2ncc([C@H](C)N3CCOCC3)cc2-c2nc(C)nc(N)n2)cc1F (single isomer, unassigned)    44

(1) COc1ccc(Nc2ncc(CNC(C)(C)C)cc2-c2nc(C)nc3[nH]cnc23)cn1
(2) COc1ccc(Nc2ncc([C@@H](C)N3CCN(S(C)(=O)=O)CC3)cc2-c2nc(C)nc(N)n2)cn1
(3) COc1ccc(Nc2nc3ccccc3cc2-c2nc(C)nc(N)n2)cn1
(4) COc1ncc(Nc2ncc(C(C)c3ccc(S(C)(=O)=O)cc3)cc2-c2nc(C)nc(N)n2)cc1F (stereo not shown)
(5) Cc1nc(N)nc(-c2cc([C@H](C)N3CCOCC3)cnc2Nc2cnc(Cl)c(NS(=O)(=O)N(C)C)c2)n1
Query: # rank by Ki, ascending (min first) Enter labels, ranked according to the request.
Response: 4, 2, 5, 3, 1
(4: 1 nM, 2: 6 nM, 5: 15 nM, 3: 45 nM, 1: 217 nM)

(A) Cc1nc(N)nc(-c2cc([C@H](C)N3CCOCC3)cnc2Nc2cnc(Cl)c(NS(C)(=O)=O)c2)n1 (single isomer, unassigned)
(B) Cc1cnc(Nc2cccnc2)c(-c2nc(C)nc(N)n2)c1
Query: Which numeric Ki is bigger, that of A or that of B ? Please reply using the label of the selected record.
Response: B

(A) Cc1nc(N)cc(-c2nccnc2Nc2cccc3[nH]ncc23)n1
(B) Cc1nc(N)nc(-c2cc(C(C)N3CCOCC3)cnc2Nc2ccc3scnc3c2)n1 (stereo not shown)
Query: Compare reported Ki values for A and B . Which is lower? Please reply using the label of the selected record.
Response: B
(B: 45 nM, A: 98 nM)

====

- target: ProfilerPro Kinase Selectivity Assay Kit kinases (Homo sapiens, UniProt P06213)
- Assay type: biochemical
- conditions used: INSR; 1 μM compound concentration
quantity measured: POC (Percent of control) INSR (POC)

1) COc1ccc(Nc2ncc(CN3CCN(C(C)=O)CC3)cc2-c2nc(C)nc3[nH]cnc23)cn1    97
2) c1cnc(Nc2cccc3[nH]ccc23)c(-c2ncnc3[nH]cnc23)c1    88

(I) Cc1nc(N)nc(-c2cc(CN3CCN(S(C)(=O)=O)CC3)cnc2Nc2cccc(O)c2)n1
(II) Cc1nc(N)cc(-c2cccnc2Nc2cccc3[nH]ncc23)n1
Query: Compare reported POC (Percent of control) INSR values for I and II . Which is lower? Please reply using the label of the selected record.
Response: II

====

- target: UniProtKB P12931
- Sequence (P12931 2-536 limits assumed): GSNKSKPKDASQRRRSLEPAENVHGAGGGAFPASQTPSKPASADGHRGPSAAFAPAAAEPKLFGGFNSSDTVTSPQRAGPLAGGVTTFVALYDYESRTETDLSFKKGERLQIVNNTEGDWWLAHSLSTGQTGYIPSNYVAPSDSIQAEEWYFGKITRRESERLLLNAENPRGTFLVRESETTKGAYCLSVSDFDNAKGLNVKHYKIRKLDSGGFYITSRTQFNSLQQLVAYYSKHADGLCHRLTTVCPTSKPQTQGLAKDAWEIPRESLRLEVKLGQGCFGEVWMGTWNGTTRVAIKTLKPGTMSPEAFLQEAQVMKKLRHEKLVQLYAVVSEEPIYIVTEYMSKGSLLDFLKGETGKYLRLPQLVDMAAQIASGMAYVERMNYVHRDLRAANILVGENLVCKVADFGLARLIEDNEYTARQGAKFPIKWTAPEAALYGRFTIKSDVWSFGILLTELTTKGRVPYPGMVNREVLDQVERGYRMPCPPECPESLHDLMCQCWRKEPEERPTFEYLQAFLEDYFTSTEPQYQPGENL
- Type: biochemical
- conditions used: SRC; 1 μM compound concentration
quantity measured: POC (Percent of control) SRC (POC)

// known answers, use as guide
1. COc1ccc(Nc2ncccc2-c2ncnc3[nH]cnc23)cn1 [Example 20]    95
2. Cc1cnc(Nc2cccc3[nH]ccc23)c(-c2nc(C)nc(N)n2)c1 [Example 46]    96
3. COc1ccc(Nc2ncc(Cc3ccc(S(C)(=O)=O)cc3)cc2-c2nc(C)nc3[nH]cnc23)cn1 [Example 103]    89
4. COc1ccc(Nc2ncccc2-c2nc(C)nc3[nH]cnc23)cn1 [Example 58]    102
5. Cc1nc(N)nc(-c2cccnc2Nc2cccc3[nH]ccc23)n1 [Example 22]    101
6. c1cnc(Nc2cccc3[nH]ncc23)c(-c2ncnc3[nH]cnc23)c1 [Example 18]    93
7. CCc1cnc(Nc2ccc(OC)nc2)c(-c2nc(C)nc3[nH]cnc23)c1 [Example 74]    99
8. Cc1cnc(Nc2cccc3[nH]ncc23)c(-c2nc(C)nc(N)n2)c1 [Example 47]    79

(I) Cc1nc(N)cc(-c2cccnc2Nc2cccc3[nH]ncc23)n1 [Example 27]
(II) c1cnc(Nc2cccc3[nH]ccc23)c(-c2ncnc3[nH]cnc23)c1 [Example 19]
Query: Which numeric POC (Percent of control) SRC is bigger, that of I or that of II ? Please reply using the label of the selected record.
Response: I

====

- target: ProfilerPro Kinase Selectivity Assay Kit kinases (Homo sapiens, UniProt Q13177)
- Sequence (Q13177 2-524 limits assumed): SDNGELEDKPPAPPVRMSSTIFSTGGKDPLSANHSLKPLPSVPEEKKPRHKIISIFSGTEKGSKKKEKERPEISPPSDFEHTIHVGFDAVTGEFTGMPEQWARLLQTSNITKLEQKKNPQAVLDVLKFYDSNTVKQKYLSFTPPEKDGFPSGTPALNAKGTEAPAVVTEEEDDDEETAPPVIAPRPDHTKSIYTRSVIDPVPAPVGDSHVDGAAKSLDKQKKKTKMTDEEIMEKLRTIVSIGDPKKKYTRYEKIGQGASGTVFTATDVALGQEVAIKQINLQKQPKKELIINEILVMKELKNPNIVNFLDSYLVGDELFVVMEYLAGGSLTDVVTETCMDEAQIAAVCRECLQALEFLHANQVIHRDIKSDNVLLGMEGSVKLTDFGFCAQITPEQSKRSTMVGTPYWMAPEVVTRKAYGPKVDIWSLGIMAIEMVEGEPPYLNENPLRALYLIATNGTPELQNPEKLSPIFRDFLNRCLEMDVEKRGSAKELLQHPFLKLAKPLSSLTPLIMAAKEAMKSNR
- Type: biochemical
- conditions used: PAK2; 1 μM compound concentration
quantity measured: POC (Percent of control) PAK2 (POC)

1) Cc1nc(N)nc(-c2cc(CN3CCN(S(C)(=O)=O)CC3)cnc2Nc2cccc(O)c2)n1    105
2) CCc1cnc(Nc2ccc(OC)nc2)c(-c2nc(C)nc3[nH]cnc23)c1    94
3) Cc1nc(N)nc(-c2cccnc2Nc2cccc(O)c2)n1    96
4) Cc1cnc(Nc2cccc3[nH]ccc23)c(-c2nc(C)nc(N)n2)c1    95
5) c1cnc(Nc2cccc3[nH]ccc23)c(-c2ncnc3[nH]cnc23)c1    105
